biological target: CI‐M6P/IGF2R:D1–D15 (Homo sapiens, UniProt P11717); construct: domains 1–15 (residues AA 41–2304); gp67 signal peptide (X1) (N, cleaved yes); 6‐His‐tag (C); PreScission protease cutting site (C); TwinStrep‐tag (C); made in house; host or cells: Spodoptera frugiperda Sf9 insect cells (baculovirus, pFastBac-1), secreted into the medium; assay: Competitive fluorescence polarization assay (displacement of fluorescent glycopeptide 1); type: binding; details: receptor 300 nM, glycopeptide 1 10 nM, pH 8.0; mean of two independent measurements in triplicate ± S.D.; read-out: IC50
pIC50: −log10 of the molar value.

STRUCTURE STRING	TARGET SYSTEM	pIC50
NC(=O)[C@H](Cc1cn(CCO[C@H]2O[C@H](CCP(=O)(O)O)[C@@H](O)[C@H](O)[C@@H]2O)nn1)NC(=O)[C@H](Cc1c[nH]c2ccccc12)NC(=O)[C@@H](N)Cc1cn(CCO[C@H]2O[C@H](CCP(=O)(O)O)[C@@H](O)[C@H](O)[C@@H]2O)nn1	CI‐M6P/IGF2R:D1–D15 (Homo sapiens, UniProt P11717)	6.32
O=P(O)(O)CC[C@H]1O[C@H](C/C=C/c2ccc(O)cc2)[C@@H](O)[C@@H](O)[C@@H]1O	CI‐M6P/IGF2R:D1–D15 (Homo sapiens, UniProt P11717)	5.38
CC(=O)N[C@@H](Cc1cn(CCO[C@H]2O[C@H](CCP(=O)(O)O)[C@@H](O)[C@H](O)[C@@H]2O)nn1)C(=O)N[C@@H](Cc1c[nH]c2ccccc12)C(=O)N[C@@H](Cc1cn(CCO[C@H]2O[C@H](CCP(=O)(O)O)[C@@H](O)[C@H](O)[C@@H]2O)nn1)C(N)=O	CI‐M6P/IGF2R:D1–D15 (Homo sapiens, UniProt P11717)	6.18
CO[C@H]1O[C@H](CP(=O)(O)O)[C@@H](O)[C@H](O)[C@@H]1O	CI‐M6P/IGF2R:D1–D15 (Homo sapiens, UniProt P11717)	3.86
CO[C@H]1O[C@H](CCC(=O)O)[C@@H](O)[C@H](O)[C@@H]1O	CI‐M6P/IGF2R:D1–D15 (Homo sapiens, UniProt P11717)	4.25

Values were extracted from paper PMC12284618.
